experiment-summary: reduced viability of SK-BR-3 breast cancer cells – cell-based, 24 h, human, pilot screen (AID 572);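 also: compound exposure lasted between 18 and 24 h rather than exactly 24 h; 100% = carrier-treated control wells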
run-parameters: SK-BR-3 viability, CellTiter-Glo luminescence, at 10 µM, stronger effect = lower value

compound	viability (%)
N#C/C(C(=O)N1CCOCC1)=C1/SC=C(c2ccccc2)N1c1ccccc1	102
COc1ccc(S(=O)(=O)Cc2ccc(C(=O)NCCc3ccc(S(N)(=O)=O)cc3)o2)cc1	94.5
Cc1nnc(NC(=O)CSc2cn(CCNC(=O)c3ccccc3)c3ccccc23)s1	83.5
C=CCSc1nc2sc(C)c(C)c2c(=O)[nH]1	97.5
CC(=O)c1ccc(OCC(O)CN2CCN(CCO)CC2)cc1 (stereo not given)	116
Cc1nc2sc(C(c3cccs3)N3CCC(C(N)=O)CC3)c(O)n2n1 (stereo not given)	92.5
Brc1ccccc1-c1nc(-c2ccccc2)no1	88
Cn1c(C(=O)NCCN2CCN(c3ccccc3F)CC2)cc2c(=O)n(C)c3ccccc3c21	89
Cn1cccc1Cc1nnc(SCC(=O)NCC2CCCO2)n1-c1ccc(F)cc1 (stereo not given)	97.5
O=C(O)C1CC(=O)N(CCOc2ccccc2)C1 (stereo not given)	105
COc1cc2c(cc1OC)C(c1ccc(C)o1)CC(=O)N2 (stereo not given)	81.5
CCN(CC)S(=O)(=O)c1ccc2oc(C(=O)N3CCOCC3)c(C)c2c1	79.5
CCc1c(C)c2c(C)nn(-c3ccccc3)c2[nH]c1=O	83
O=C(C1CCCN1S(=O)(=O)c1cccc2cccnc12)N1CCn2c1nc1ccccc12 (stereo not given)	100
O=C(c1ccc(CNc2c(N3CCCC3)c(=O)c2=O)cc1)N1CCc2ccccc2C1	90.5
c1nc(NCC2CCCO2)c2[nH]cnc2n1 (stereo not given)	83.5
Cn1c(NC(=O)c2ccccc2NC(=O)C(C)(C)C)nc2ccccc21	95
CCOc1ccc(NS(=O)(=O)c2cc(Cl)ccc2OC)cc1	102
COc1cc2c(cc1OC)-c1nnc(-c3cccs3)n1C(C)(C)C2	64.5
CCCc1cc(C(=O)Nc2sc3c(c2C#N)CCC3)no1	86.5
Cc1ccc(C)n1-c1ccc(-n2cnnn2)cc1	103
Cc1nnc(N2C(=O)C(O)=C(C(=O)c3ccco3)C2c2ccc(F)cc2)s1 (stereo not given)	99
C#CCOC(=O)C1C2C=CC(C2)C1C(=O)O (stereo not given)	86
COc1ccc(N(CC(=O)Nc2ccc3c(c2)OCO3)S(=O)(=O)c2c(C)nn(C)c2C)cc1	90.5
CCOC(=O)N1CCC(Nc2ncnc3c2cnn3-c2ccc(C)cc2C)CC1	86
O=C(Nc1c(C(=O)NCc2ccco2)cnn1-c1ccccc1)c1ccc(F)cc1	95.5
CCOC(=O)C1CCN(C(=O)CN(c2ccc(Cl)c(C(F)(F)F)c2)S(C)(=O)=O)CC1	112
N#CC(C(=O)Nc1ccccc1)=C1CCCCC1	99
COc1ccc(C(NC(=O)c2ccco2)c2ccc(OC)c(OC)c2)cc1 (stereo not given)	93
CCOC(=O)Cn1ncc(-c2ccccc2)c1N	101
CC(=O)NCCc1ccc(S(=O)(=O)NCc2ccc3c(c2)OCO3)cc1	91
COc1ccc(S(=O)(=O)Nc2ccc(F)c(Cl)c2)cc1OC	97.5
Cc1cccc(C2CC(c3ccc(Cl)cc3)Nc3nc(N)nn32)c1 (stereo not given)	91
CSc1cccc(NS(=O)(=O)c2ccccc2)c1	78.5
COC(=O)c1ccc(NC(=O)CN2CCCC2)cc1	107
O=C(NC1CCN(Cc2ccccc2)CC1)C1CCN(S(=O)(=O)c2cccc3cccnc23)CC1	96.5
CC(CC(=O)NC1CCSC1=O)c1ccccc1 (stereo not given)	97
CCOc1ccccc1NC(=O)C1CCCN(S(=O)(=O)c2cccc3cccnc23)C1 (stereo not given)	108
Cc1noc(/C=C/N(C)C)c1S(=O)(=O)N1CCCC(C(=O)NCCC2=CCCCC2)C1 (stereo not given)	94.5
CCN1C(=O)c2cccc3c(NC(=O)c4ccc(S(=O)(=O)N(C)C)cc4)ccc1c23	86
COc1ccc(N(CC(=O)Nc2cc(C)ccc2C)S(=O)(=O)c2c(C)nn(C)c2C)cc1	92
Cc1noc(/C=C/N(C)C)c1S(=O)(=O)N1CCCC(C(=O)N2CCc3ccccc32)C1 (stereo not given)	104
COc1cccc(C2C(C(=O)c3cccs3)=C(O)C(=O)N2CCCn2ccnc2)c1OC (stereo not given)	130
Cc1onc(-c2c(Cl)cccc2Cl)c1C(=O)NCC1CCCO1 (stereo not given)	111
O=C(Nc1cnccn1)c1cccs1	115
